Assay: in vivo
Details: male, cynomolgus monkey, sc, 5 mg/kg/day, Average Concentration, Sclera
readout.name: concentration at 29 day (ng/g)
State the answer as a number, implicitly in ng/g.

The value of concentration at 29 day measured for the compound Cc1cc(O)cc(C)c1C[C@H](NC(=O)[C@H](N)CCCNC(=N)N)C(=O)N[C@@H](CCCCN)c1nc(Cc2ccccc2)no1.Cl.Cl.Cl [Formula IIa] turned out to be 1820

====

Assay: in vivo
Settings: male, cynomolgus monkey, sc, 15 mg/kg/day, Average Concentration, ICB (iris/ciliary body)
readout.name: concentration at 42 day (ng/g)
State the answer as a number, implicitly in ng/g.

The value of concentration at 42 day measured for the compound Cc1cc(O)cc(C)c1C[C@H](NC(=O)[C@H](N)CCCNC(=N)N)C(=O)N[C@@H](CCCCN)c1nc(Cc2ccccc2)no1.Cl.Cl.Cl [Formula IIa] turned out to be 1410

====

Assay: in vivo
Details: male, cynomolgus monkey, sc, 2 mg/kg/day, Average Concentration, ICB (iris/ciliary body)
readout.name: concentration at 29 day (ng/g)
State the answer as a number, implicitly in ng/g.

The value of concentration at 29 day measured for the compound Cc1cc(O)cc(C)c1C[C@H](NC(=O)[C@H](N)CCCNC(=N)N)C(=O)N[C@@H](CCCCN)c1nc(Cc2ccccc2)no1.Cl.Cl.Cl [Formula IIa] turned out to be 354

====

Assay: in vivo
Conditions: female, cynomolgus monkey, sc, 15 mg/kg/day, Average Concentration, Vitreous Humor
readout.name: concentration at 42 day (ng/mL)
State the answer as a number, implicitly in ng/mL.

The value of concentration at 42 day measured for the compound "Cc1cc(O)cc(C)c1C[C@H](NC(=O)[C@H](N)CCCNC(=N)N)C(=O)N[C@@H](CCCCN)c1nc(Cc2ccccc2)no1.Cl.Cl.Cl" turned out to be 62.7

====

Assay: in vivo
Settings: male, cynomolgus monkey, sc, 5 mg/kg/day, Average Concentration, Retina
readout.name: concentration at 29 day (ng/g)
State the answer as a number, implicitly in ng/g.

The value of concentration at 29 day measured for the molecule "Cc1cc(O)cc(C)c1C[C@H](NC(=O)[C@H](N)CCCNC(=N)N)C(=O)N[C@@H](CCCCN)c1nc(Cc2ccccc2)no1.Cl.Cl.Cl" turned out to be 5760

====

Assay: in vivo
Settings: female, cynomolgus monkey, sc, 2 mg/kg/day, Average Concentration, Aqueous Humor
readout.name: concentration at 29 day

The value of concentration at 29 day measured for the compound "Cc1cc(O)cc(C)c1C[C@H](NC(=O)[C@H](N)CCCNC(=N)N)C(=O)N[C@@H](CCCCN)c1nc(Cc2ccccc2)no1.Cl.Cl.Cl" turned out to be 2.76 ng/mL

Value source: patent US20260263550A1
